Target: T1, Bfl-1
T1 sequence (Q16548 whole entry, species assumed, looked up): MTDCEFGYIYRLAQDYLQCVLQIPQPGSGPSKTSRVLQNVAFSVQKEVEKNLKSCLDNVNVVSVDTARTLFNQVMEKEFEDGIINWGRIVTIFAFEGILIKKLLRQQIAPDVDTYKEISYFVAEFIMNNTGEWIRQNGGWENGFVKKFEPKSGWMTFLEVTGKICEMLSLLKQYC
Test: fluorescence polarisation
pKi: −log10 of the molar value.
quantity-kind: pKi

1: H-RPEIWMAQVLRRFGDLLNAYYAR-OH [FD2]
2: Ac-RPEIWLAQYLRRLGDQINAYYAR-NH2 [FD1]
Problem: Which of these two has the smaller recorded pKi: 1 or 2 ? Identify your selection by its label.
Result: 1
(1: 8.42, 2: 9.15)
